biological target: recombinant human hepatic type GK (GST-hGK2) (Homo sapiens, UniProt P35557); construct: made in house; host or cells: Escherichia coli BL21; experiment: Measurement of glucokinase (GK) activation; type: biochemical; conditions: 10 min; test compound final concentration 10 μM; 5 mM glucose; 27° C.; increase of absorbance at 340 nm during first 10 minutes vs DMSO; read-out: GK activation (%)
Sequence (P35557 1-466 isoform P35557-2): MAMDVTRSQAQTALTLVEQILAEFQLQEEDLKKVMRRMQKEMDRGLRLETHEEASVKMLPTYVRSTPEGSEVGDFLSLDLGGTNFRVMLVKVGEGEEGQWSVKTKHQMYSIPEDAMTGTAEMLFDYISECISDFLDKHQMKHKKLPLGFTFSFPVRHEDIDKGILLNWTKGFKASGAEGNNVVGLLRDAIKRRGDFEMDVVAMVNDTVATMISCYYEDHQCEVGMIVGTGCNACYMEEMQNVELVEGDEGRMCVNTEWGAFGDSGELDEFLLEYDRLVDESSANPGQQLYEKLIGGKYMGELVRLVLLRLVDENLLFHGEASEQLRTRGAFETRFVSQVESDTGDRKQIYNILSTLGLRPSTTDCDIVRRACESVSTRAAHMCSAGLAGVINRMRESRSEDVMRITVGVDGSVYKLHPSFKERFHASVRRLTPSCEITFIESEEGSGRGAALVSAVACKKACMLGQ
readoutKind: activation at 10 µM (%)
Just the number please, in %, no unit attached.

Known results for compounds:
Cc1ccc(NC(=O)/C(=C/[C@H]2CCC(=O)C2)c2ccc(S(=O)(=O)C3CC3)c(C3CC3)c2)nc1 377
Cc1cnc(NC(=O)/C(=C/C2CCOCC2)c2ccc(S(=O)(=O)C3CC3)c(C3CC3)c2)cn1 314
Cn1ccc(NC(=O)/C(=C/C2CCOCC2)c2ccc(S(=O)(=O)C3CC3)c(C3CC3)c2)n1 365
Cn1ccc(NC(=O)/C(=C/[C@H]2CC[C@H](O)C2)c2ccc(S(=O)(=O)C3CC3)c(C3CC3)c2)n1 197
Cn1ccc(NC(=O)/C(=C/[C@H]2CC[C@@H](O)C2)c2ccc(S(=O)(=O)C3CC3)c(C3CC3)c2)n1 199

Value of activation at 10 µM reported for the compound O=C1CC[C@H](C[C@@H](C(=O)Nc2cnc(CCO)cn2)c2ccc(S(=O)(=O)C3CC3)c(C3CC3)c2)C1 is 326

Value of activation at 10 µM reported for the compound Cc1cnc(NC(=O)/C(=C/[C@@H]2CCC(=O)C2)c2ccc(S(=O)(=O)C3CC3)c(C3CC3)c2)cn1 is 245
